- systemTested: LdtMt2 (Mycobacterium tuberculosis)
- Construct: gene ldtB
- Sequence (I6Y9J2 35-408): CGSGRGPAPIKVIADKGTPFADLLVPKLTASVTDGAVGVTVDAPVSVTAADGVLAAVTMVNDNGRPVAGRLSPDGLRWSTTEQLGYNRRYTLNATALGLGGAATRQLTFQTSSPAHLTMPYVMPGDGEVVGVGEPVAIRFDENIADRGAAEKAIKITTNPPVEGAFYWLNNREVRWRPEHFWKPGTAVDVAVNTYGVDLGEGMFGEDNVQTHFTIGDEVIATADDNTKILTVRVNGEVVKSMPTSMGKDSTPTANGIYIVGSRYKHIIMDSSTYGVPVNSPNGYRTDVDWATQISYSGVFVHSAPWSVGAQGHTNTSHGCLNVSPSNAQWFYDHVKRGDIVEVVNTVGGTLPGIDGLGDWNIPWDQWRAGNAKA
- method: biochemical
- conditionSet: 10 min pre-incubation; read-out: pIC50 LdtMt2 (converted)
Reported IC50 by item:

Example entries and their recorded answers appear below.
{"columns": ["compound", "systemTested", "IC50"],
 "data": [
  ["O=[N+]([O-])c1ccc(S(=O)(=O)c2ccccc2)cn1 [compound 32, 32]", "LdtMt2 (Mycobacterium tuberculosis)", "25.1 µM"],
  ["O=[N+]([O-])c1ccc(S(=O)(=O)c2ncc(C(F)(F)F)cc2Cl)cc1 [compound 46, 46]", "LdtMt2 (Mycobacterium tuberculosis)", "> 39.8 µM"],
  ["O=S(=O)(c1ccccc1)c1cccnc1 [compound 38, 38]", "LdtMt2 (Mycobacterium tuberculosis)", "> 39.8 µM"],
  ["N#Cc1cccnc1S(=O)(=O)c1ccccc1 [compound 42, 42]", "LdtMt2 (Mycobacterium tuberculosis)", "> 39.8 µM"]
]}

Consider the record given below.
What does the data say about its IC50? Entry: COc1ccc(S(=O)(=O)c2ccccc2)nc1 [compound 40, 40] > 39.8 µM
